# IC50 per entry for DPP-IV (Homo sapiens)
Please answer using a numeric value trailed by its unit.

Recorded results for 2 compounds are shown here.
Compound | Recorded metric | Result
COc1cc2c(cc1OC)[C@@]1(c3ccc(F)cc3)[C@@H](C(=O)O)SCC(=O)N1CC2 (relative stereo) | IC50 | 0.35 µM
COc1cc2c(cc1OC)C1C(C(=O)O)SCC(=O)N1CC2 (stereo not drawn) | IC50 | 41.1 µM

Moving on to the next compound.
Incoming: Quick check: IC50 of COc1cc2c(cc1OC)[C@@]1(c3ccc(C(F)(F)F)cc3)[C@@H](C(=O)O)SCC(=O)N1CC2 (relative stereo) ?
Outgoing: 15.9 µM
